// provenance: patent US20250376533A1

systemUnderTest: T1, cynomolgus PD-L1 antigen (ACROBiosystems) (cynomolgus, UniProt G7PSE7 19-238)
T1 construct: Bought antigen coated on ELISA plates; construct not described
T1 sequence (G7PSE7 entry or part of it): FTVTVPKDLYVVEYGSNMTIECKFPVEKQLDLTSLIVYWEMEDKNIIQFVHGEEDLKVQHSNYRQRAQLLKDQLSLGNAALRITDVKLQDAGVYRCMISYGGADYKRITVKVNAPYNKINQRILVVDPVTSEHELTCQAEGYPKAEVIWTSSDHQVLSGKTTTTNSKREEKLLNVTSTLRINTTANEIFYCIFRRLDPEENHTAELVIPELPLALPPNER
methodSummary: ELISA, coated antigen
Would you kindly list EC50 for each of these binders?
// return numeric value only (unit: nM, not printed)

For anti-PD-L1 monoclonal antibody 1029 (antibody, human IgG1, V domains shown) VH: EVQLVESGGGLVQPGGSLRLSCAASGFTLDYYSKCWFRQAPGKEREWVSCIGSSDGSTYYADSVKGRFTISRDNAKNTVYLQMNSLRAEDTAVYYCAARNGGPLTIENFFDYWGQGTQVTVSS the binder record lists EC50 as 0.013

Consider anti-PD-L1 monoclonal antibody 1102 (antibody, human IgG1, V domains shown) VH: EVQLVESGGGLVQPGGSLRLSCAASGFTFDYYTQCWFRQAPGKEREWVSCISSSEGSTYYADSVKGRFTISRDNAKNTVYLQMNSLRAEDTAVYYCAARKGGPLTIENFFDYWGQGTQVTVSS . Its measured EC50 is 0.013

Value of EC50 reported for the binder anti-PD-L1 monoclonal antibody 1541 (antibody, human IgG1, V domains shown) VH: EVQLVESGGGLVQPGGSLRLSCAASGFTFDYYTQCWFRQAPGKEREWVSCISSSEGSTYYADSVKGRFTISRDNSKNTVYLQMNSLKTEDTAVYYCAARKGGPLTIENFFDYWGQGTQVTVSS is 0.018

Measured EC50, anti-PD-L1 monoclonal antibody 1031 (antibody, human IgG1, V domains shown) VH: EVQLVESGGGLVQPGGSLRLSCAASGFTFEYYTKCWFRQAPGKEREWVSCISTSEGSTYYADSVKGRFTISRDNAKNTVYLQMNSLRAEDTAVYYCAARKGGPLTIENFFDYWGQGTQVTVSS : 0.018
